The measurements presented in this section are drawn from PubChem BioAssay (NCATS).

- Test system: astro (control astrocytes)
- Measurement Description: Drug repurposing screens with cells derived from glioblastoma tumor samples (AID 1345199); also: nearly all actives have a fitted effect of over 40% in size; also: potency is read from the fitted curve at half-maximal effect
- Experimental Setup: viability, ATP luminescence, 48 h; series mostly up to 45.9 µM
Results filed as inconclusive are left out. Activity calls are given as the source filed them. Calls follow the shape of the dose curve; as a rule, active = well fitted inhibition curve with a large enough effect; inconclusive = small, poorly fitted or top-dose-only effect; inactive = flat fitted curve, though single readings scatter.
Recorded Endpoint: Potency

# Potency lookup, item CN1CCN(CCCN2c3ccccc3Sc3ccc(C(F)(F)F)cc32)CC1
25.1 µM (active)

Record: Cc1cn[nH]c1
inactive

Record: CNC(=O)c1ccccc1Sc1ccc2c(/C=C/c3ccccn3)n[nH]c2c1
2 µM (active)

Record: OC(CN1CCC(Cc2ccc(F)cc2)CC1)c1ccc(Cl)cc1 (configuration not stated)
inactive

Record: Clc1cccc(Cl)c1NC1=NCCN1
inactive

New cases:
# Potency lookup, item CCCCNc1cc(C(=O)O)cc(S(N)(=O)=O)c1Oc1ccccc1
inactive

Record: O=c1[nH]cnc2[nH]ncc12
inactive

###

- Measurement Description: Cell Proliferation Assay Versus the ED40515 IL2 Dependent ATL cell lines (AID 1053195)
- Experimental Setup: ED40515 IL2-dependent ATL cells
Calls of active or inactive are those of the source. Calls come from the whole dose curve.
Recorded Endpoint: Potency

Examples with answers:
# Potency lookup, item Nc1cccc(S(=O)(=O)N2CCCN(S(=O)(=O)c3ccc4c(c3)OCCO4)CC2)c1
16.6 µM (active)

Record: COCC(=O)NCC=Cc1ccc2ncnc(Nc3ccc(Oc4ccc(C)nc4)c(C)c3)c2c1
4.69 µM (active)

// switching to the query molecule
# Potency lookup, item CNC(=O)c1ccc(C)c(-n2c(C)cc(OCc3ccc(F)cc3F)c(Br)c2=O)c1
5.9 µM (active)

###

- Measurement Description: Quantitative High-Throughput drug screen in 47 multiple myeloma cell lines against the NCATS MIPE library collection: OPM1_PLB cell viability assay (AID 1918989); also: nearly all actives have a fitted effect of over 40% in size; also: potency is read from the fitted curve at half-maximal effect
- Experimental Setup: CellTiter-Glo, 48 h; series mostly up to 45.8 µM
Results filed as inconclusive are left out. The source made the active and inactive calls. Calls come from the whole dose curve; as a rule, active = well fitted cell-killing curve with a large enough effect; inconclusive = small, poorly fitted or top-dose-only effect, or effect the other way; inactive = no such curve, though single readings can be large or run the other way.
Recorded Endpoint: Potency

Examples with answers:
# Potency lookup, item NC(=O)C1CCCc2c1[nH]c1ccc(Cl)cc21 (configuration not stated)
4.69 µM (active)

Record: CCn1c(-c2nonc2N)nc2c(C#CC(C)(C)O)ncc(OC[C@H]3CCCNC3)c21
0.148 µM (active)

Record: CCn1cc(C(=O)O)c(=O)c2cc(F)c(N3CCNC(C)C3)c(F)c21 (configuration not stated)
11.8 µM (active)

Record: Nc1nc2c(ncn2COCCO)c(=O)[nH]1
inactive

Record: COc1ccc(COc2cc3oc(=O)c4cc(C(C)O)ccc4c3cc2OC)cc1 (configuration not stated)
18.7 µM (active)

Record: CCCS(=O)(=O)Nc1ccc(F)c(C(=O)c2c[nH]c3ncc(Cl)cc23)c1F
18.7 µM (active)

New cases:
# Potency lookup, item CCCn1c(=O)c2[nH]c(C34CC5CC3C[C@@H](C5)C4)nc2n(CCC)c1=O
inactive

Record: CNC[C@H](O)c1cccc(O)c1
inactive

Record: Cc1c(CN2CCN(C(=O)C(C)C)CC2)sc2c(N3CCOCC3)nc(-c3cnc(N)nc3)nc12
0.118 µM (active)

Record: O=C(c1cc(Cc2n[nH]c(=O)c3ccccc23)ccc1F)N1CCN(C(=O)C2CC2)CC1
inactive

###

- Measurement Description: qHTS of pediatric cancer cell lines to identify multiple opportunities for drug repurposing: Confirmatory screen for TC32 cells (AID 1347118);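 also: cells exposed to compound for 48 h before the read; nearly all actives have a fitted effect of over 65% in size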
- Experimental Setup: TC32 Ewing sarcoma cells viability qHTS; series mostly up to 45.9 µM
Records with an inconclusive call do not appear. The source made the active and inactive calls. The call rests on the fitted dose curve; in most records, active means well fitted cell-killing curve with a large enough effect; inconclusive means small, poorly fitted or top-dose-only effect; inactive means no such curve, though single readings can be large or run the other way.
Allowed answers: YES for active, NO for inactive

Hi, sorry to bother you, what did the test record for C[C@]1(c2nc3c(C(N)=O)cccc3[nH]2)CCCN1 ?
YES

Record: Cn1cnc([N+](=O)[O-])c1Sc1ncnc2nc[nH]c12
YES

Record: Cc1c(CN2CCN(C(=O)C(C)C)CC2)sc2c(N3CCOCC3)nc(-c3cnc(N)nc3)nc12
YES

Record: CS(=O)(=O)c1ccc(C(=O)Nc2ccc(Cl)c(-c3ccccn3)c2)c(Cl)c1
YES

Record: Cc1cn[nH]c1
NO

Record: CC(C=CC1=C(C)CCCC1(C)C)=CC=CC(C)=CC(=O)O
YES

New cases:
Hi, sorry to bother you, what did the test record for Cc1c(C)c2c(c(C)c1O)CCC(C)(COc1ccc(CC3SC(=O)NC3=O)cc1)O2 (configuration not stated) ?
NO
